# Assay Comment: Primary qHTS for inhibitors of nuclear receptor binding SET domain protein 2 (NSD2) in an isogenic RCH-ACV NSD2 p.E1099K mutant (9B) (AID 1645876); note: nearly all actives have a fitted effect of over 70% in size
# Measurement Parameters: RCH-ACV (leukaemia line) NSD2 E1099K (9B) viability, CellTiter-Glo, 72 h; series mostly up to 44.9 µM
Inconclusive results are not listed. Active and inactive are the calls of the source. Calls come from the whole dose curve; as a rule, active = well fitted inhibition curve with a large enough effect; inconclusive = small, poorly fitted or top-dose-only effect; inactive = flat fitted curve, though single readings scatter.
Output constraint: value belongs to y for active, n for inactive

Solved cases (5 shown):
>>> label_class("CC(C)(C)NC[C@H](O)COc1cccc2c1CCCC2=O")
"n"
>>> label_class("CCOC(=O)c1c(N)sc2c1CCN(Cc1ccccc1)C2")
"y"
>>> label_class("CCCCCCCCCCCCCCCC(=O)O")
"n"
>>> label_class("CCN(CC)CCNC(=O)COc1ccc(OC)cc1")
"n"
>>> label_class("C/C=C/C=N/NC(=O)c1ccncc1")
"n"

Enquiry: Which outcome was assigned to CCOc1ccccc1OCCN[C@H](C)Cc1ccc(OC)c(S(N)(=O)=O)c1 in this test?
Return: n

----------
# Assay Comment: S16 Schwann cell PMP22 intronic element firefly luciferase assay (AID 624032); note: nearly all actives have a fitted effect of over 30% in size
# Measurement Parameters: S16 rat Schwann cells, PMP22 element FLuc, 24 h; series mostly up to 57.5 µM
Records with an inconclusive call do not appear. Activity calls are given as the source filed them. Calls come from the whole dose curve; as a rule, active = well fitted inhibition curve with a large enough effect; inconclusive = small, poorly fitted or top-dose-only effect; inactive = no such curve, though single readings can be large or run the other way.
Output constraint: value belongs to YES for active, NO for inactive

>>> label_class("CC(=O)Nc1ncc([N+](=O)[O-])s1")
"NO"
>>> label_class("Oc1ccccc1C=NCc1ccccc1")
"NO"
>>> label_class("CCCCCCCC/C=C\\CCCCCCCCN")
"NO"
>>> label_class("C#C[C@]1(OC(C)=O)CC[C@H]2[C@@H]3CCC4=C/C(=N/O)CC[C@@H]4[C@H]3CC[C@@]21CC")
"YES"
>>> label_class("CC[N+](C)(CC)CCOC(=O)C(O)(c1ccccc1)C1CCCCC1 (stereo not given)")
"NO"
>>> label_class("CNCCc1ccccn1")
"NO"
>>> label_class("Oc1ccc(Cl)cc1Cc1cc(Cl)ccc1O")
"NO"
>>> label_class("CCCCc1cc2ccccc2c(OCCN(C)C)n1")
"NO"

Enquiry: Which outcome was assigned to CC(=O)Nc1ccc(OC(=O)c2ccccc2OC(C)=O)cc1 in this test?
Return: YES

Enquiry: Which outcome was assigned to CCc1ccc(C(=O)C(C)CN2CCCCC2)cc1 (stereo not given) in this test?
Return: NO

Enquiry: Which outcome was assigned to CCN1/C(=C/C=C/c2sc3ccccc3[n+]2CC)Sc2ccccc21 in this test?
Return: YES

Enquiry: Which outcome was assigned to CCN(CC)CCOc1ccc2c(c1)C(=O)c1cc(OCCN(CC)CC)ccc1-2 in this test?
Return: YES

Enquiry: Which outcome was assigned to CCCN(CCC)S(=O)(=O)c1ccc(C(=O)O)cc1 in this test?
Return: NO

Enquiry: Which outcome was assigned to NC(N)=NCc1cccc(I)c1 in this test?
Return: NO

----------
# Test system: TAB165
# Assay Comment: qHTS profiling for inhibitors of Plasmodium falciparum proliferation (AID 504749); note: nearly all actives have a fitted effect of over 60% in size
# Measurement Parameters: P. falciparum in erythrocytes, SYBR Green DNA, 72 h; series mostly up to 28.7 µM
# Method: NIH National Institute of Allergy and Infectious Diseases [NIAID] NIH Chemical Genomics Center [NCGC] […] Because mature erythrocytes lack DNA, only Plasmodium-derived DNA is detected. NCGC Assay Protocol Summary: The SYBR Green viability assay was adapted from a method described previously (Plouffe et al., 2008). […] The following morning, fluorescence intensity at 485(14) nm excitation and 535(25) nm emission wavelengths was measured on an EnVision (Perkin Elmer) plate reader. […]
Inconclusive results are not listed. Calls of active or inactive are those of the source. Calls follow the shape of the dose curve; as a rule, active = well fitted inhibition curve with a large enough effect; inconclusive = small, poorly fitted or top-dose-only effect; inactive = flat fitted curve, though single readings scatter.
Output constraint: value belongs to active, inactive

Solved cases (5 shown):
>>> label_class("CC1=C(C(=O)O)N2C(=O)[C@@H](NC(=O)[C@H](N)c3ccccc3)[C@H]2SC1")
"inactive"
>>> label_class("CCC1Nc2cc(Cl)c(S(N)(=O)=O)cc2S(=O)(=O)N1 (stereo unspecified)")
"inactive"
>>> label_class("CCN(CC)CCNC(=O)COc1ccc(OC)cc1")
"inactive"
>>> label_class("CCOc1cc(OCC)c(C(=O)CCC(=O)O)cc1OCC")
"inactive"
>>> label_class("Cl/C(=C\\n1cncn1)c1ccc(Cl)cc1Cl")
"inactive"

Enquiry: Which outcome was assigned to O=c1[nH]c(=O)n([C@H]2C[C@H](O)[C@@H](CO)O2)cc1F in this test?
Return: inactive

Enquiry: Which outcome was assigned to NS(=O)(=O)Cc1noc2ccccc12 in this test?
Return: inactive

Enquiry: Which outcome was assigned to N=C(N)N1CCc2ccccc2C1 in this test?
Return: inactive

Enquiry: Which outcome was assigned to CC(C)(Cc1c[nH]c2ccccc12)NCC(O)COc1ccccc1C#N (stereo unspecified) in this test?
Return: active

Enquiry: Which outcome was assigned to NC(=O)c1ccccc1O in this test?
Return: inactive

Enquiry: Which outcome was assigned to CN(C)C(=O)Nc1ccc(Cl)c(Cl)c1 in this test?
Return: inactive

Enquiry: Which outcome was assigned to CCc1oc2ccccc2c1C(=O)c1cc(I)c(O)c(I)c1 in this test?
Return: inactive

Enquiry: Which outcome was assigned to COc1ccc2c(c1)c1c3n2CCN(C)C3=NCC1 in this test?
Return: inactive

Enquiry: Which outcome was assigned to CCOC(=O)c1ccc(N)cc1 in this test?
Return: inactive

Enquiry: Which outcome was assigned to O=S(=O)(O)c1ccc(O)cc1 in this test?
Return: inactive

----------
# Assay Comment: Cell Viability - LYMP2-010 (AID 981);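 note: cells exposed to compound for 24 hours at 37 °C; nearly all actives have a fitted effect of over 55% in size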
# Measurement Parameters: LYMP2-010 lymphoblastoid cell viability, qHTS; series mostly up to 92.2 µM
Records with an inconclusive call do not appear. The source made the active and inactive calls. Calls follow the shape of the dose curve; as a rule, active = well fitted cell-killing curve with a large enough effect; inconclusive = small, poorly fitted or top-dose-only effect; inactive = flat fitted curve, though single readings scatter.
Readout: outcome

>>> measured_result("OC[C@H]1O[C@@H]2O[C@H]3[C@H](O)[C@@H](O)[C@@H](O[C@H]4[C@H](O)[C@@H](O)[C@@H](O[C@H]5[C@H](O)[C@@H](O)[C@@H](O[C@H]6[C@H](O)[C@@H](O)[C@@H](O[C@H]7[C@H](O)[C@@H](O)[C@@H](O[C@H]8[C@H](O)[C@@H](O)[C@@H](O[C@H]1[C@H](O)[C@H]2O)O[C@@H]8CO)O[C@@H]7CO)O[C@@H]6CO)O[C@@H]5CO)O[C@@H]4CO)O[C@@H]3CO")
"inactive"
>>> measured_result("O=C(O)c1ccc(S(=O)(=O)N(Cl)Cl)cc1")
"inactive"
>>> measured_result("CCOc1ccc(NC(C)=O)cc1")
"inactive"

----------
# System: HB3
# Assay Comment: qHTS profiling for inhibitors of Plasmodium falciparum proliferation (AID 504749); note: nearly all actives have a fitted effect of over 60% in size
# Measurement Parameters: P. falciparum in erythrocytes, SYBR Green DNA, 72 h; series mostly up to 28.7 µM
# Method: NIH National Institute of Allergy and Infectious Diseases [NIAID] NIH Chemical Genomics Center [NCGC] […] Because mature erythrocytes lack DNA, only Plasmodium-derived DNA is detected. NCGC Assay Protocol Summary: The SYBR Green viability assay was adapted from a method described previously (Plouffe et al., 2008). […] The following morning, fluorescence intensity at 485(14) nm excitation and 535(25) nm emission wavelengths was measured on an EnVision (Perkin Elmer) plate reader. […]
Inconclusive results are not listed. Activity calls are given as the source filed them. Calls follow the shape of the dose curve; as a rule, active = well fitted inhibition curve with a large enough effect; inconclusive = small, poorly fitted or top-dose-only effect; inactive = flat fitted curve, though single readings scatter.
Output constraint: value belongs to active, inactive

Solved cases (8 shown):
>>> label_class("CCOCCn1c(N2CCCN(C)CC2)nc2ccccc21")
"inactive"
>>> label_class("Cc1cccc(C)c1NC(=O)CN1CCCC1")
"inactive"
>>> label_class("CCOC(=O)Nc1ccc2c(c1)N(C(=O)CCN1CCOCC1)c1ccccc1S2")
"inactive"
>>> label_class("CC(=O)NCCCCCC(=O)O")
"inactive"
>>> label_class("CC(=O)Nc1ccc(S(=O)(=O)Nc2ccc([N+](=O)[O-])cc2)cc1")
"inactive"
>>> label_class("COc1ccc(CCN(C)CCCN2CCc3cc(OC)c(OC)cc3CC2=O)cc1OC")
"inactive"
>>> label_class("CC(C)(C)NC[C@H](O)COc1nsnc1N1CCOCC1")
"active"
>>> label_class("CCCCCCCCNC(C)C(O)c1ccc(SC(C)C)cc1 (configuration not stated)")
"active"

Enquiry: Which outcome was assigned to NS(=O)(=O)Cc1noc2ccccc12 in this test?
Return: inactive

Enquiry: Which outcome was assigned to Cc1c(-c2ccccc2)oc2c(C(=O)OCCN3CCCCC3)cccc2c1=O in this test?
Return: inactive

Enquiry: Which outcome was assigned to Cc1ccc(S(=O)(=O)NC(=O)NC2CCCC2)cc1 in this test?
Return: inactive

Enquiry: Which outcome was assigned to CCCc1ncc(C[n+]2ccccc2C)c(N)n1 in this test?
Return: inactive

----------
# Tested on: WaGa
# Assay Comment: qHTS assay to identify novel small-molecules to repurpose for Merkel cell carcinoma treatment (AID 1296009); note: nearly all actives have a fitted effect of over 60% in size
# Measurement Parameters: MCC and control cell lines, CellTiter-Glo viability, 72 h; series mostly up to 46 µM
Inconclusive results are not listed. Calls of active or inactive are those of the source. Calls follow the shape of the dose curve; as a rule, active = well fitted inhibition curve with a large enough effect; inconclusive = small, poorly fitted or top-dose-only effect; inactive = flat fitted curve, though single readings scatter.
Output constraint: value belongs to active, inactive

Solved cases (6 shown):
>>> label_class("CCOc1ccc(NC(C)=O)cc1")
"inactive"
>>> label_class("CCCCCCCCCCCCOCCOCCOCCOCCOCCOCCOCCOCCOCCO")
"active"
>>> label_class("C/C=C/c1ccc(O)c(OC)c1")
"inactive"
>>> label_class("CCN(CC)CCNC(=O)COc1ccc(OC)cc1")
"inactive"
>>> label_class("CCCCCCCCCCCCSCCOCCO")
"inactive"
>>> label_class("CCCCc1cc2ccccc2c(OCCN(C)C)n1")
"active"

Enquiry: Which outcome was assigned to CC(=O)Oc1ccc(C)cc1 in this test?
Return: inactive
